# testedTarget: T1, Cynomolgus EGFR extracellular domain (Cynomolgus monkey (Macaca fascicularis), UniProt P55245 25-645 (rhesus entry))
# T1 construct: Cloned without signal peptide; also called Cynomolgus rEGFR ECD; Cynomolgus EGFR ECD
# assaySummary: ELISA on cynomolgus EGFR ECD (Example 10)
# Procedure: To verify that tested Anti-EGFR antibodies bound equally well to both Human and Cynomolgus EGFR ECD and accordingly warranting toxicology studies in Cynomolgus monkeys, serial four fold dilutions of antibodies beginning from 1 μg/ml were tested by ELISA for binding to recombinant Human and Cynomolgus EGFR ECD proteins. […] After incubation the reaction was stopped by addition of 1 M H₂SO₄; 100 μl/well and plates were read at OD 450 nm.

>  <binder>
antibody 1277 (antibody, human IgG1, kappa, V domains shown, Chimeric IgG1 kappa; also called clone 1277) VH: EVQLVESGGGLVKPGESLKLSCAASGFAFSYSDMSWVRQTPEKRLEWVAYMSSAGDVTFYSDTVKGRFTISRDNAKNTLYLQVSSLKSEDTAIYYCVRHRDVAMDYWGQGTSVTVSS VL: DVVMTQTPLSLPVSLGDQASISCRSSQSLVHSNGNTYLHWYLQKPGQSPKLLIYKVSNRFSGVPDRFSGSGSGTDFTLKISRVEAEDLGVYFCSQSTHVPTFGGGTKLEIKR

>  <binding result>
binds

$$$$
>  <binder>
antibody 1042 (antibody, human IgG1, kappa, V domains shown, Chimeric IgG1 kappa; RA- left out of the VH entry) VH: QVQLQQPGAELVKPGASVKLSCKASGYTFTSHWMHWVQQRPGQGLEWIGEIHPSNGRTNYNEKFKNKATLTVDKSPSTAYMQLSSLTSEDSAVYYCARYYGYDDAMDYWGQGTSVTVSS VL: DIVMTQAAFSNPVTLGTSASISCRSSKSLLHSNGITYLYWYLQKPGQSPQLLIYQMSNLASGVPDRFSSSGSRTDFTLRISRVEAEDVGVYYCAQNLELPYTFGGGTKLEIKR

>  <binding result>
binds

$$$$
>  <binder>
antibody 1261 (antibody, human IgG1, kappa, V domains shown, Chimeric IgG1 kappa) VH: EVQLVESGGGLVKPGGSLKLSCAVSGFTFSSYVMSWVRQTPEKRLEWVATITSGGRNIYYLDSVKGRFTISRDNAKNTLYLQMSSLRSEDTAMYYCARHEDYRYDGYYAMDYWGQGTSVTVSS VL: QIVLTQSPAIMSASPGEKVTITCSASSSVSYMHWFQQKPGTSPKLWIYSTSNLASGVPARFSGSGSGTSYSLTISRMEAEDAATYYCQQRSSYPYTFGGGTKLELKR

>  <binding result>
binds

$$$$
